Provenance of the data: patent US11306063B2

Please provide measured inhibition at 5 µM for the entries that follow.
molecular target: USP8^CD (purified catalytic domain of USP8) (Homo sapiens, UniProt P40818); construct: the purified catalytic domain of USP8 (USP8^CD, in-house purified); made in house; host or cells: E. coli BL21 Gold; test: Inhibition of purified USP8^CD enzymatic activity (Ub-AMC or Ub-Rho substrate); format: biochemical; settings: 5 μM compound; Table 1d
Sequence (P40818 777-1109 limits assumed): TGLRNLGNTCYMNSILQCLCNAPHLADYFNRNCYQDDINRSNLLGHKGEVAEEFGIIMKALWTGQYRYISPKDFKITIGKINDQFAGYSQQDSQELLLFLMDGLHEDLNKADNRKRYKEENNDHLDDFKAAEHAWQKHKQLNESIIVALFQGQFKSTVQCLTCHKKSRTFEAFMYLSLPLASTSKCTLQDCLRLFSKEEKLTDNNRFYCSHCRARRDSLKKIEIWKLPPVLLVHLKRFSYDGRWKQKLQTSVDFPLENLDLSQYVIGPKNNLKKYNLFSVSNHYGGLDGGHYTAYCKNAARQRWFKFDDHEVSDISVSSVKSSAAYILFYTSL

CCS(=O)(=O)Cc1nc2c(nc1CS(=O)(=O)CC)C(=O)c1ccccc1C2=O    104%

Could I get inhibition at 5 µM for every one of these entries?
1. O=C1c2ccccc2C(=O)c2nc(CS(=O)(=O)c3cccc(F)c3)c(CS(=O)(=O)c3cccc(F)c3)nc21
2. CCCS(=O)(=O)Cc1nc2c(nc1CS(=O)(=O)CCC)C(=O)c1ccccc1C2=O
3. COc1ccc(S(=O)(=O)Cc2nc3c(nc2CS(=O)(=O)c2ccc(OC)c(OC)c2)C(=O)c2ccccc2C3=O)cc1OC

Marked response:
1. 76%
2. 103%
3. 77%
